All figures here come from patent US5861424A.

# Test system: human melanoma LOX cell line
# assay.overview: Colony formation assay, human melanoma LOX
# Format: cell-based
# condition.context: Homo sapiens, LOX, 24 h, Table V; 24 h treatment; read-out: LOX (IC50)
endpoint.name: IC50
For clarity, give the value followed by its unit.

Q: Please provide the recorded IC50 for `CCN1C(=CC=c2sc(=Cc3sc4ccc5ccccc5c4[n+]3CC)n(CC)c2=O)N(CC)c2ccccc21` , tested on human melanoma LOX cell line.
Result: 0.03 µg/mL

Q: Please provide the recorded IC50 for `CC[n+]1c(C=c2sc(=CC=C3Sc4ccc5ccccc5c4N3C)c(=O)n2C)sc2c3ccccc3ccc21` , tested on human melanoma LOX cell line.
Result: 0.082 µg/mL

Q: Please provide the recorded IC50 for `CCN1C=CC=CC1=CC=c1sc(=Cc2sc3ccc4ccccc4c3[n+]2CC)n(CC)c1=O` , tested on human melanoma LOX cell line.
Result: 0.035 µg/mL

Q: Please provide the recorded IC50 for `CCN1C(=CC=c2sc(=Cc3sc4c5ccccc5ccc4[n+]3CC)n(C)c2=O)Sc2ccc3ccccc3c21` , tested on human melanoma LOX cell line.
Result: 0.07 µg/mL

Q: Please provide the recorded IC50 for `CCN1CCSC1=CC=c1sc(=Cc2sc3ccc(C)cc3[n+]2CC)n(CC)c1=O` , tested on human melanoma LOX cell line.
Result: 0.04 µg/mL

Q: Please provide the recorded IC50 for `CCN1C(C)=CSC1=CC=c1sc(=Cc2sc3ccccc3[n+]2CC)n(CC)c1=O` , tested on human melanoma LOX cell line.
Result: 0.09 µg/mL

Q: Please provide the recorded IC50 for `CCn1c(=Cc2sc3ccc(Cl)cc3[n+]2CC)sc(=CC=C2N(C)c3ccccc3C2(C)C)c1=O` , tested on human melanoma LOX cell line.
Result: 0.04 µg/mL

Q: Please provide the recorded IC50 for `CCN1CCSC1=CC=c1sc(=Cc2sc3ccccc3[n+]2CCOC)n(CC)c1=O` , tested on human melanoma LOX cell line.
Result: 0.064 µg/mL
